- target.of.assay: T1, recombinant human DLL4 (Cat# 1506-D4/CF, R&D Systems) (human, UniProt Q9NR61 27-529)
- T1 construct: Bought protein; also called hDLL4; rHuman DLL4
- test.details: ELISA, DLL4 coated, Fab 0.74 nM
ELISA absorbance at 450 nm reference

>  <binder>
Fab VH5-51_IGHD5-18*01>3_IGHJ4*01 G100K/G104T G24T/S28R/G35V & V3-4_IGLJ1*01 M94R/S96M (Fab, V domains shown, Fab made in E. coli: VH on CH1 with His6 and Flag tags (Plasmid A), VL on lambda CL (Plasmid E); also called H: KT TRV & L: RM; KT TRV-V3-4 RM) VH: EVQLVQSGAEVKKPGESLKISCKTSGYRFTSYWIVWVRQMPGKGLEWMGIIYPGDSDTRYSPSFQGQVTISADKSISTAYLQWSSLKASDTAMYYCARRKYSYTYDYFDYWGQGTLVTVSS VL: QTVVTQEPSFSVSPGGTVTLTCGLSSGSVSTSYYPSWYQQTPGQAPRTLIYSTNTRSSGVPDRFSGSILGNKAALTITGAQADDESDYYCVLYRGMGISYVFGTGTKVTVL

>  <ELISA absorbance at 450 nm (A450)>
0.006

$$$$
>  <binder>
Fab VH1-46_IGHD6-6*01_IGHJ1*01 S102A/S103P/S104F/H111F I51V/N52L/S54T/G56H & L6_IGKJ1*01 S28N/S30D/S31H (Fab, V domains shown, Fab made in E. coli: VH on CH1 with His6 and Flag tags (Plasmid A), VL on kappa CL (Plasmid C); also called H: APFF VLTH & L: NDH) VH: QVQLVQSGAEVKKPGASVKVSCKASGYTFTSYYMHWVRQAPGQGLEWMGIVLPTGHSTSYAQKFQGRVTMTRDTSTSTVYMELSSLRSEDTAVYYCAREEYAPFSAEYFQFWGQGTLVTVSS VL: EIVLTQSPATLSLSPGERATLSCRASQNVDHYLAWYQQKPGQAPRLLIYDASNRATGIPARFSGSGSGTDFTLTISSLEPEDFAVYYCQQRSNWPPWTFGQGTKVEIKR

>  <ELISA absorbance at 450 nm (A450)>
0.288

$$$$
>  <binder>
Fab VH5-51_IGHD5-18*01>3_IGHJ4*01 G100K/G104T S28R & V3-4_IGLJ1*01 (Fab, V domains shown, Fab made in E. coli: VH on CH1 with His6 and Flag tags (Plasmid A), VL on lambda CL (Plasmid E); also called H: KT S28R & L: wt) VH: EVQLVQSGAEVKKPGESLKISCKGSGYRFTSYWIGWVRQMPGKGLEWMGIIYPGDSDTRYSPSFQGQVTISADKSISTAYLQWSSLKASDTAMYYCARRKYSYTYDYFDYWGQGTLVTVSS VL: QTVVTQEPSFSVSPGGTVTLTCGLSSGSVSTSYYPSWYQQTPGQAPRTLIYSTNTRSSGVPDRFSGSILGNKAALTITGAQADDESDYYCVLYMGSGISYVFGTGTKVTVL

>  <ELISA absorbance at 450 nm (A450)>
0

$$$$
>  <binder>
Fab VH1-46_IGHD6-6*01_IGHJ1*01 S102A/S103P/S104F/H111F N52L/S54T/G56H & L6_IGKJ1*01 S28N/S30D/S31H (Fab, V domains shown, Fab made in E. coli: VH on CH1 with His6 and Flag tags (Plasmid A), VL on kappa CL (Plasmid C); also called H: APFF LTH & L: NDH) VH: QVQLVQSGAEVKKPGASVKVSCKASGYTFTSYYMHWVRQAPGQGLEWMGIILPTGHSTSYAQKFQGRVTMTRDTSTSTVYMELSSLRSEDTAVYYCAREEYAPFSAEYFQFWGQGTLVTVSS VL: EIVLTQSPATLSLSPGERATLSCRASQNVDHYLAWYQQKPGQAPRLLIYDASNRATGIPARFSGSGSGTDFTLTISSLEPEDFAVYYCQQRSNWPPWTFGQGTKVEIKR

>  <ELISA absorbance at 450 nm (A450)>
0.27

$$$$
